assay: folding stability dG unfold (combined trypsin and chymotrypsin); higher = more stable
// values below are reported folding stability dG unfold
Enter your answer as a number in kcal/mol; do not include the unit.

Input line: Any idea what folding stability dG unfold was measured for SMPKIEVKIEYDEETGEITVEIRVPETEEEALEALRKLAEEAGLEVEVEEVEIEEVDGELVIRVKVRIKPSA [r9_164_TrROS_Hall] ?
Output line: 3.08

Input line: Consider the sequence SAGGSAGGSMVKTFPESEPGERVTRELILTPDSIEIVETVVKTDPATGKPVEEVLLRRSTLPLSAGGSAGGS [r12_70_JUSTAS] and give its measured folding stability dG unfold.
Output line: -0.353

---

assay: folding stability dG unfold from chymotrypsin proteolysis; higher = more stable
Note to self: values exactly at 2 kcal/mol are Condition met. So folding stability dG unfold at or above 2 kcal/mol is Condition met, below is Condition not met.

Some solved cases for reference:
Input line: Hi team, for SAGGGPLSPGSVPVEEEVTEVVEDPATGTVTTRSRVRYPDGVEVEVTTTTPAPGLPEVSTTEVTVRPASAGG [r13_894_JUSTAS] , is the recorded folding stability dG unfold at or above 2 kcal/mol?
Output line: Condition not met

Input line: Answer whether folding stability dG unfold of SAGGMIQIERDKDGYLRITIWVPGDPKEAEEIAENIIELLQDLGFDEVDIDYEPFDGGVMIEITVKVSAGGS [r8_113_TrROS] is greater than or equal to 2 kcal/mol.
Output line: Condition met

Input line: Hello, I need to know if SAGGSAGGMPVVVETRPDPETGNEIVRITVPKPNYTLVLRRDSQGKETLLAEIGPYTPDDPGLLSAGGSAGG [r6_149_JUSTAS] has measured folding stability dG unfold not below 2 kcal/mol. Thanks!
Output line: Condition not met

***
Input line: Decide: is the reported value of folding stability dG unfold for SAGGSAGGSAGGKYKILKIEKYKLPNGGYYYKALVYEEENGEWKEIYAKANSAKNFKFESAGGSAGGSAGGS [r10_326_TrMRF] equal to or greater than 2 kcal/mol?
Output line: Condition not met

Input line: Does folding stability dG unfold meet or surpass 2 kcal/mol for SAGGSAGGGPPGTTTTTISTPDGPVTVTVSPTSVTVTRPGSNETVTSSGSPTTTLEEIAAEIAASAGGSAGG [r6_317_JUSTAS] ?
Output line: Condition not met

Input line: Is it the case that SAGGMTLTVDEIKELLKKGYSLEEIKEALKKAGFEIVEIKKIEKKDGKIYIEIEFKKNKKIIKIEIPSAGGS [r8_179_TrROS_Hall] has folding stability dG unfold reaching or exceeding 2 kcal/mol?
Output line: Condition met

Input line: Answer whether folding stability dG unfold of SAGGWITPELIEEIAKTIAEENPENGKEVPIEVVIPFPNSVIKIEIEFDPSNGKIEIEDIKVIPPNDLSAGG [r13_37_TrROS] is greater than or equal to 2 kcal/mol.
Output line: Condition not met

---

experiment: folding stability dG unfold from chymotrypsin proteolysis; higher = more stable
Some sequences, each annotated with its measured folding stability dG unfold.
Give the value in kcal/mol but do not write kcal/mol after it.

Examples from the recorded data:
Input line: Using the record for SAPPYYIVIKFKMELPPPTPEDAKEYDPDGEVRRTTVEMTFVIPIPPEDLEDLKDFMQSLGIEEIEIFKSAG [r14_509_TrROS] , report its folding stability dG unfold.
Output line: 2.75

Input line: I am curious: what folding stability dG unfold value has been reported for GPSPVSVSTSTSTSLSTVGNTPVLVTTTTTTTTTLSPDPTDPSVTTTTTTTTTTTTVYDPANGKPLSTTTSS [r1_406_JUSTAS] ?
Output line: 1.86

Input line: So what does the record say about folding stability dG unfold for SLRDIAKEIAEKAGMDPEDVEINVETEPDPKNGKPRLRITVSIEHPNRKYMIKIDFQDGEIEEIMPLEDISA [r9_1219_TrROS] ?
Output line: 1.97

Input line: Item SAGGSAGGKKKVLLVKVEIELPNGEKLELVAESEEEALEALKKLLEKKGLKIKKVEIVELEEKESAGGSAGG [r6_405_TrROS_Hall] has what recorded folding stability dG unfold?
Output line: 2.41

Input line: Entry SAGGEPMKIRIEIYRMKRKKDPKDGKEKWDMRPVPEYEIPFPPGETLLDILDKLPLPPGYMIKRISIESAGG [r13_716_TrROS] has what folding stability dG unfold?
Output line: 2.07

Continuing:
Input line: Param item = SAGGSAGGSAGGGISEAAASGTPLLVTYTDESGNVTEVVVRPDSPVPLPGVVSAEVRLESAGGSAGGSAGGS [r10_700_JUSTAS] ; retrieve measured folding stability dG unfold.
Output line: 0.167

Input line: So what's the measured folding stability dG unfold for this one? SAGGSAGGSAPEVKIKVELFENENGELTATATIEVDGKLYKITVKFDKNGKIVEVKIEELPSAGGSAGGSAG [r3_165_TrROS_Hall]
Output line: 4.39

Input line: Returns the measured folding stability dG unfold for the input sequence. Input: SAGGSAGGSAGVRIDKDGWTIKWYNPDGEKRTFTVDSPEEAKDFLEENFPPGWRVEIEPPSAGGSAGGSAGG [r11_983_TrROS]
Output line: 1.38

---

The reader will find reported folding stability dG unfold values listed item by item below.
assay: folding stability dG unfold (combined trypsin and chymotrypsin); higher = more stable
Supply the numeric figure in kcal/mol, leaving out any unit text.

Solved entries (count: 5):
Input line: Return reported folding stability dG unfold; argument: SAGGSAGGSAGSNKVVTFVPRDPATGAPLGERPIPINSSSGSEIESIKKELPPEVVEIVESAGGSAGGSAGG [r17_339_JUSTAS]
Output line: 1.01

Input line: Looking for the measured folding stability dG unfold of SVKVEVSISYDPETNTITITVRVYYKDENGNWTEVATITITIKIELPPPPPKTITLKPGVKTKEEAKKALSA [r9_888_TrROS_Hall] , can you help?
Output line: 3.01

Input line: Name the reported folding stability dG unfold value associated with the sequence SAGGSAGGKKKKKKKKKYYTFVLKVKEKDLTPEEIKKLFPNVKIEKKDGYLVITVKVNGKEIKFSAGGSAGG [r6_738_TrROS_Hall]
Output line: 2.11

Input line: Query: folding stability dG unfold; subject: SAGGSAGGSDTLEYEVPLEDGSTIRITLFPDGTARVELEDGTPVAEIEVPPDTSIEELIARIRSAGGSAGGS [r12_990_TrMRF]
Output line: 2.45

Input line: What measured folding stability dG unfold goes with SAGGSAMITVKLEGKPVTVEILSREPKGRLVKAQAVVHRPDDGTEKTVSGLLSEEEIEKAIEEALASAGGSA [r15_944_JUSTAS] ?
Output line: -0.15

Moving on to the next sequence.
Input line: Dear colleague, I am looking for the recorded folding stability dG unfold of the following sequence: SEAEIKIKEVDENGYLVLEIKVPKEEVEKLREKLKELFPNAEIVEVKYDEETGEVTIIVRLPDGKLYEFKSA [r9_1164_TrROS_Hall]
Output line: 1.06

---

assay: folding stability dG unfold from trypsin proteolysis; higher = more stable
List of folding stability dG unfold values.
Number in kJ/mol, nothing else.

Previously resolved entries follow.
Input line: Recorded folding stability dG unfold of SAGGSAGGSMTFSSEEEAEAFIAQLPPDSEVEVEIKDPNTDKTTKYKIKVPPEQPVYSPKGVLSAGGSAGGS [r12_393_JUSTAS] , please.
Output line: 1.29

Input line: # get_value(readout='folding stability dG unfold', item= SNEPPVIEIKFRIDEVQPMNGQPMIMFEITEIEDAPPEIQDLLKNGYYIMIHMPPGEPLKEGEEFEIHIFSA [r9_557_TrROS] )
Output line: 5.62

Input line: Quick one: folding stability dG unfold for SAGGSAGGSAGGRIRLPNMPPGHDMEIKSIKVPEPGPVKLTIEPPGSDKKQERYMPPDDISAGGSAGGSAGG [r7_342_TrROS] ?
Output line: 0.297

Input line: What does the data say about its folding stability dG unfold? Entry: SEAEIKIKEVDENGYLVLEIKVPKEEVEKLREKLKELFPNAEIVEVKYDEETGEVTIIVRLPDGKLYEFKSA [r9_1164_TrROS_Hall]
Output line: 4.41

Input line: Any idea what folding stability dG unfold was measured for SAGGSASPEELAERVAKEIEEKYPVEVTEIRVEEVSEDEVVLSMTYRKPLPGGETEVENRTVTLPQSAGGSA [r15_276_JUSTAS] ?
Output line: 0.678

Input line: What folding stability dG unfold value was documented for this sequence, SAGKKIELTFRNPDGWMIRITIEKKPNGGFQITEITWEPYPNGRMSAKIYVPNGKTIEVNSWDDILDALSAG [r5_618_TrROS] ?
Output line: 4.55

More entries:
Input line: Form field: reported folding stability dG unfold of SAGGSAGGSAGGLWLTFNFRLTFFNPDGQAMEIEIPIEIRIPPPPVTVPDPDGEEYKYDSAGGSAGGSAGGS [r10_330_TrROS]
Output line: 9.98
